Target: SARS-CoV-2 spike (S) protein on authentic SARS-CoV-2 virus (strain WA1/2020) (SARS-CoV-2, UniProt P0DTC2 14-1273)
Test: cell-based or functional assay
Measured Parameter: Nano-luciferase virus reduction test, SARS-CoV-2, IC50

[
  {
    "Binder": "COV2-2113 (antibody, V domains shown) VH: EVQLVESGGGLIQPGGSLRLSCAASEVTVSSNYMSWVRQAPGKGLEWVSLIYSGGTTYYADSVKGRFTISRDNSKNTLYLQMNSLRAEDTAVYYCARDFLRWHDLWGQGTLVTVSS VL: DIQMTQSPSSLSASVGDRVTITCQASQDINNYLNWYQQKPGKAPKLLIYDASNLETGVPLRFSGSGSGTDFIFTISSLQPEDIATYYCQQYDNLPPVFGGGTKVEIK",
    "Reading": "< 0.3 µg/mL"
  },
  {
    "Binder": "COV2-2082 (antibody, V domains shown) VH: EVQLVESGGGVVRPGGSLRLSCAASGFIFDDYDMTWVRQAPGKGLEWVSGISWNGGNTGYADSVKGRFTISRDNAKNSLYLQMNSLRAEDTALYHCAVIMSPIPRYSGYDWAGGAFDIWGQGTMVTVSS VL: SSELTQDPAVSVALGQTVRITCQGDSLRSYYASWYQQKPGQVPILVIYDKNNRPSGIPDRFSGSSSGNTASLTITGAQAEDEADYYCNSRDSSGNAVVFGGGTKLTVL",
    "Reading": "< 0.2 µg/mL"
  },
  {
    "Binder": "COV2-2068 (antibody, V domains shown) VH: EVQLVESGGGLVQPGGSLRLSCAASGFTVSSNYMSWVRQAPGKGLEWVSVIYPGGSAFYADSVKGRFTISRHNSNNTLCLQMNSLRTEDTAVYYCARSYDILTGYRDAFDIWGQGTMVTVSS VL: QSVLTQPPSVSGAPGQRVTISCTGSSSNIGSGSDVHWYQQLPGTAPKLLIYGNTNRPSGVPDRFSGSKSGTSASLAITGLQAEDEADYYCQSYDSRLSGFVVFGGGTKLTVL",
    "Reading": "< 0.3 µg/mL"
  }
]
